target: S1P1 (Homo sapiens, UniProt P21453); experiment: S1P1 internalization assay in S1P1-U2OS cells (S1P1-EGFP), cell imaging; type: cell-based; parameters: host or cells: U2OS (human bone osteosarcoma epithelial cells), CMV promoter, geneticin selection; conditions: 1 hour incubation
Sequence (P21453 whole entry): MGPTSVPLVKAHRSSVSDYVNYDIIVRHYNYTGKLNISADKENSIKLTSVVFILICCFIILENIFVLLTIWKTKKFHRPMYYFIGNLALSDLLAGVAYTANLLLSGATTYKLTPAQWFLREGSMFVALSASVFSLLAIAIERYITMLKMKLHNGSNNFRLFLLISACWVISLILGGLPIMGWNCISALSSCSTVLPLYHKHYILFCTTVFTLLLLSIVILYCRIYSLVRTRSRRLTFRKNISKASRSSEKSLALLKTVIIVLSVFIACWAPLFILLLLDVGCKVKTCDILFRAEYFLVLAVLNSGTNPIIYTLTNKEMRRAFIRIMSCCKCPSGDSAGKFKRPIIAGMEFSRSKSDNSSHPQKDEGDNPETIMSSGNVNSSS
Where a name gives a salt, the structure may show the parent alone.
measured_attribute: EC50 (nM)
Number only, in nM; omit the unit.

{"compound": "COCc1cc(-c2nc(-c3ccc(CN(C)CC(=O)O)c(F)c3)no2)ccc1-c1ccccc1Cl [Example 119, hydrochloride salt]", "readout_unit": "nM", "EC50": 11.5}
{"compound": "CCOc1cc(-c2nc(-c3ccc(CN(C)CC(=O)O)c(F)c3)no2)ccc1-c1ccccc1C [Example 92, hydrochloride salt]", "readout_unit": "nM", "EC50": 7.91}
{"compound": "CCOc1cc(-c2nc(-c3cccc(CN(C)CC(=O)O)c3)no2)ccc1-c1ccccc1C [Example 30, hydrochloride salt]", "readout_unit": "nM", "EC50": 8.92}

Return reported EC50; argument: COCc1cc(-c2nc(-c3cccc(CN(C)CC(=O)O)c3)no2)ccc1-c1cccc(F)c1C [Example 35, hydrochloride salt]
5.88

Subsequent entry: COCc1cc(-c2nc(-c3ccc(CN(C)CC(=O)O)c(Br)c3)no2)ccc1-c1ccccc1C [Example 53, hydrochloride salt]
7.61

Subsequent entry: COCc1cc(-c2nc(-c3ccc(C(=O)NCCC(=O)O)c(F)c3)no2)ccc1N1CCCCC1C (stereo not shown) [Example 3]
7.76

Subsequent entry: COCc1cc(-c2nc(-c3ccc(CCN(C)CC(=O)O)cc3)no2)ccc1-c1ccccc1C [Example 87]
13.6
